Below, each of the molecules is paired with its reported TGI value.
- Test system: MDA-MB-468 breast
- Assay Comment: NCI tumour cell line growth inhibition, 48 h
Only the number, expressed in µM, is required.

molecule=Cc1ccc(S(=O)(=O)Nc2cc(Sc3ccccc3)c(O)c3ccccc23)cc1 quantity_measured=TGI scale_unit=µM numeric_value=3.36
molecule=COc1cc2nc(N3CCC[C@@H](NC4=CC(=O)c5ccccc5C4=O)C3)nc(N)c2cc1OC quantity_measured=TGI scale_unit=µM numeric_value=3.77
molecule="CN(C)c1ncnc2c1ccn2C1OC(CO)C(O)C1O (stereo not drawn)" quantity_measured=TGI scale_unit=µM numeric_value=1
molecule=COc1ccc(CN2[C@@H](C(=O)NCc3ccc(C(=O)NO)cc3)Cc3c([nH]c4ccccc34)[C@@H]2C)cc1 quantity_measured=TGI scale_unit=µM numeric_value=4.45
molecule=Cc1ccccc1NC(=O)c1cc2ccccc2cc1O quantity_measured=TGI scale_unit=µM numeric_value=7.89
molecule=COc1cc2c3c(n(CCCNCC4CC4)c(=O)c2cc1OC)-c1cc2c(cc1C3=O)OCO2 quantity_measured=TGI scale_unit=µM numeric_value=9.66
molecule="CCCCN(CCCC)CCC(O)c1cc2ccc(C(F)(F)F)cc2c2cc(C(F)(F)F)ccc12 (stereo not drawn)" quantity_measured=TGI scale_unit=µM numeric_value=3.46

[Q] Would you kindly share the measured TGI for NCCSC(C[N+](=O)[O-])c1ccccc1Cl (stereo not drawn) ?
[A] 6.5
